molecular target: Histamine H1 receptor (Cavia porcellus, UniProt P31389); construct: from tissue; host or cells: guinea-pig cerebellum; experiment: Affinity to Histamine H1 receptor in guinea-pig cerebellum; assay type: binding; conditions: read-out: Receptor Affinity (pKi) Histamine H1 (converted)
Sequence (P31389 whole entry): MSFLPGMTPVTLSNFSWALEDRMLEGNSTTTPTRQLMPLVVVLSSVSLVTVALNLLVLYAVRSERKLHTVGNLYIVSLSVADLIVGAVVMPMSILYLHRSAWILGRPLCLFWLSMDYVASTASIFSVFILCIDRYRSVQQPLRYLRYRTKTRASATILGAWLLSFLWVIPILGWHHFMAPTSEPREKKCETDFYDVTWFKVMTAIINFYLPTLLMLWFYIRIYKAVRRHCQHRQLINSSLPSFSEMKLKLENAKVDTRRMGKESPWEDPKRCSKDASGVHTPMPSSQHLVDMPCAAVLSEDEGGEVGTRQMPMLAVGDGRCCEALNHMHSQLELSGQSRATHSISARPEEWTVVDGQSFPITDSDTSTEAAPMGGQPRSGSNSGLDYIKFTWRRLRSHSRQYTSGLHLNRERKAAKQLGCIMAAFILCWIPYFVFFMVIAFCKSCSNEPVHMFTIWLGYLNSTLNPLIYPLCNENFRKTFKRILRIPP
# reported Ki; entries follow

compound	Ki
O=C1NCc2c(N3CCNCC3)cccc2N1Cc1cccc(F)c1 [Compound 18]	> 1000 nM
O=C1COc2c(N3CCNCC3)cccc2N1Cc1ccccc1 [Compound 3]	> 1000 nM
CN1CCN(c2cccc3c(S(=O)(=O)c4ccccc4)c[nH]c23)CC1 [Compound 32]	> 316 nM
N=C(N)NCC1CCCc2cc(S(=O)(=O)c3ccccc3)ccc21 (stereo not drawn) [Compound 52]	> 1000 nM
O=c1[nH]c2c(N3CCNCC3)cccc2n1Cc1ccccc1 [Compound 64]	> 316 nM
CN(C)CCO/N=C(/C=C/c1ccc(O)cc1)c1ccccc1F [SR46349B, reference compound]	> 1000 nM

These data points were gathered from patent US7713954B2.
